Test system: 565726-208-R1-J5-PDC complex spheroids, growth inhibition
Test: Anticancer human tumor 565726-208-R1-J5-PDC patient-derived pancreatic adenocarcinoma cell line growth inhibition [RAS]
Details: compound 0.3 µM; stronger effect = lower value
reported.metric: viability, T/C

Before answering, review these 3 worked examples.
CCn1c(-c2cccnc2C(C)OC)c2c3cc(ccc31)N1CCOC(CC(NC(=O)C(C(C)C)N(C)C(=O)C3(F)CCN(C(=O)C#CC(C)(C)N(C)C)CC3)C(=O)N3CCCC(N3)C(=O)OCC(C)(C)C2)C1 (centres undefined); 90% [middle of 8 runs]
CCc1c2c(nc3ccc(O)cc13)-c1cc3c(c(=O)n1C2)COC(=O)[C@]3(O)CC; 7.31% [middle of 4 runs]
CC1(C)CCC(Nc2ncc(C(F)(F)F)c(-c3c[nH]c4c(P(C)(C)=O)c(C#N)ccc34)n2)CN1 (centres undefined); 34.4% [middle of 4 runs]

Could you now look at the following compound, please?
// query Hello, please tell me recorded viability, T/C for this one: CCn1c(-c2cc(N3CCN(C)CC3)cnc2C(C)OC)c2c3cc(ccc31)-c1csc(n1)CC(NC(=O)C1CC1C)C(=O)N1CCCC(N1)C(=O)OCC(C)(C)C2 (centres undefined)
// result 24.9% [middle of 8 runs]

* * *

System: 565726-208-R1-J5-PDC complex spheroids, growth inhibition
Assay: Anticancer human tumor 565726-208-R1-J5-PDC cell line growth inhibition [RAS];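 further: spheroids exposed to compounds for seven days before readout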;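 on viability, T/C: 100% = DMSO vehicle control viability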
Settings: second compound 3.16 µM; first compound 3.16 µM; stronger effect = lower value
reported.metric: viability, T/C

Before answering, review these 4 worked examples.
Cc1nc(N2CCC3(CC2)COC(C)C3N)c(CO)nc1Sc1ccnc(N)c1Cl (stereo not given) + C#Cc1c(F)ccc2cc(O)cc(-c3ncc4c(N5CC6CCC(C5)N6)nc(OCC56CCCN5CC(F)C6)nc4c3F)c12; 46%
CC(Nc1ccc2c(c1)OCCn1cc(N3C(=O)OCC3C(F)F)nc1-2)C(N)=O (stereo not given) + C#Cc1c(F)ccc2cc(O)cc(-c3ncc4c(N5CC6CCC(C5)N6)nc(OCC56CCCN5CC(F)C6)nc4c3F)c12; 35.6%
CC(=O)OC12COC1CC(O)C1(C)C(=O)C(O)C3=C(C)C(OC(=O)C(O)C(NC(=O)OC(C)(C)C)c4ccccc4)CC(O)(C(OC(=O)c4ccccc4)C21)C3(C)C (stereo not given) + C#Cc1c(F)ccc2cc(O)cc(-c3ncc4c(N5CC6CCC(C5)N6)nc(OCC56CCCN5CC(F)C6)nc4c3F)c12; 25.9%
C[C@@H](NC(=O)c1ncnc(N)c1Cl)c1ncc(C(=O)Nc2cc(C(F)(F)F)c(Cl)cn2)s1 + C#Cc1c(F)ccc2cc(O)cc(-c3ncc4c(N5CC6CCC(C5)N6)nc(OCC56CCCN5CC(F)C6)nc4c3F)c12; 65.4%

// query Hello, please tell me recorded viability, T/C for this one: NC1c2ccccc2OC12CCN(c1cnc3c(N4CCCc5ncccc54)n[nH]c3n1)CC2 (stereo not given) + C#Cc1c(F)ccc2cc(O)cc(-c3ncc4c(N5CC6CCC(C5)N6)nc(OCC56CCCN5CC(F)C6)nc4c3F)c12
// result 32.6%

* * *

Test system: 565726-208-R1-J5-PDC complex spheroids, growth inhibition
Test: Anticancer human tumor 565726-208-R1-J5-PDC cell line growth inhibition [RAS];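 further: spheroids exposed to compounds for seven days before readout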
Details: curve of first compound; second compound 0.1 µM
reported.metric: pIC50
Kindly note that pIC50 refers to -log10 of the concentration in mol/L and answer with the value alone.

CC1(O)CCCC1n1c(=O)c(C(F)F)cc2cnc(NC3CCN(S(C)(=O)=O)CC3)nc21 (stereo not given) + C#Cc1c(F)ccc2cc(O)cc(-c3ncc4c(N5CC6CCC(C5)N6)nc(OCC56CCCN5CC(F)C6)nc4c3F)c12; 5.48
CC1(O)CCCC1n1c(=O)c(C(F)F)cc2cnc(NC3CCN(S(C)(=O)=O)CC3)nc21 (stereo not given) + C=CC(=O)N1CCN(c2nc(OCC3CCCN3C)nc3c(F)c(-c4nc(N)cc(C)c4C(F)(F)F)c(Cl)cc23)C(C)C1; 5.50
CCc1c2c(nc3ccc(O)cc13)-c1cc3c(c(=O)n1C2)COC(=O)[C@]3(O)CC + C#Cc1c(F)ccc2cc(O)cc(-c3ncc4c(N5CC6CCC(C5)N6)nc(OCC56CCCN5CC(F)C6)nc4c3F)c12; 8.39

Could you now look at the following compound, please?
// query Hello, please tell me recorded pIC50 for this one: Nc1ccn(C2OC(CO)C(O)C2(F)F)c(=O)n1 (stereo not given) + C#Cc1c(F)ccc2cc(O)cc(-c3ncc4c(N5CC6CCC(C5)N6)nc(OCC56CCCN5CC(F)C6)nc4c3F)c12
// result 7.13

* * *

Test system: 565726-208-R1-J5-PDC complex spheroids, growth inhibition
Assay: Anticancer human tumor 565726-208-R1-J5-PDC cell line growth inhibition [RAS];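 further: spheroids exposed to compounds for seven days before readout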;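 on viability, T/C: 100% = DMSO vehicle control viability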
Details: second compound 0.3 µM; first compound 0.00949 µM; stronger effect = lower value
Each entry below lists one item and its recorded viability, T/C value.
// note: answer is a bare numeric in %

Before answering, review these 3 worked examples.
CC1(C)CCC(Nc2ncc(C(F)(F)F)c(-c3c[nH]c4c(P(C)(C)=O)c(C#N)ccc34)n2)CN1 (centres undefined) + CCn1c(-c2cccnc2C(C)OC)c2c3cc(ccc31)N1CCOC(CC(NC(=O)C(C(C)C)N(C)C(=O)C3(F)CCN(C(=O)C#CC(C)(C)N(C)C)CC3)C(=O)N3CCCC(N3)C(=O)OCC(C)(C)C2)C1; 27.4
CCc1c2c(nc3ccc(O)cc13)-c1cc3c(c(=O)n1C2)COC(=O)[C@]3(O)CC + CCn1c(-c2cccnc2C(C)OC)c2c3cc(ccc31)N1CCOC(CC(NC(=O)C(C(C)C)N(C)C(=O)C3(F)CCN(C(=O)C#CC(C)(C)N(C)C)CC3)C(=O)N3CCCC(N3)C(=O)OCC(C)(C)C2)C1; 16.7
CCc1c2c(nc3ccc(O)cc13)-c1cc3c(c(=O)n1C2)COC(=O)[C@]3(O)CC + CCn1c(-c2cc(N3CCN(C)CC3)cnc2C(C)OC)c2c3cc(ccc31)-c1csc(n1)CC(NC(=O)C1CC1C)C(=O)N1CCCC(N1)C(=O)OCC(C)(C)C2; 15.6

// query Hello, please tell me recorded viability, T/C for this one: CC1(C)CCC(Nc2ncc(C(F)(F)F)c(-c3c[nH]c4c(P(C)(C)=O)c(C#N)ccc34)n2)CN1 (centres undefined) + CCn1c(-c2cc(N3CCN(C)CC3)cnc2C(C)OC)c2c3cc(ccc31)-c1csc(n1)CC(NC(=O)C1CC1C)C(=O)N1CCCC(N1)C(=O)OCC(C)(C)C2
// result 22.8

* * *

Tested on: 565726-208-R1-J5-PDC complex spheroids, growth inhibition
Assay: Anticancer human tumor 565726-208-R1-J5-PDC cell line growth inhibition [RAS];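 further: spheroids exposed to compounds for seven days before readout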;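 on viability, T/C: 100% = DMSO vehicle control viability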
Conditions: second compound 0.00316 µM; first compound 0.00316 µM; stronger effect = lower value
Text: RAS pathway inhibitors in Combinations in Complex Spheroids A high-throughput screen of multi-cell type tumor spheroids was designed to identify active combinations of RAS pathway inhibitors and targeted small molecules. Complex spheroids include a stromal component modeled by human endothelial cells (HUVEC) and fibroblasts modeled by human mesenchymal stem cells (MSCs). […] Compounds. […] If the clinical Cmax for an agent had not been determined, the highest concentration tested was 10 microM. […]
reported.metric: viability, T/C (%)
// note: answer is a bare numeric in %

O=C(c1ccc(F)c(F)c1Nc1ccc(I)cc1F)N1CC(O)([C@@H]2CCCCN2)C1 + C=CC(=O)N1CCN(c2nc(OCC3CCCN3C)nc3c(F)c(-c4nc(N)cc(C)c4C(F)(F)F)c(Cl)cc23)C(C)C1; 105

Could you now look at the following compound, please?
// query Hello, please tell me recorded viability, T/C for this one: C=CC(=O)Nc1cc(Nc2nccc(-c3cn(C)c4ccccc34)n2)c(OC)cc1N(C)CCN(C)C + C=CC(=O)N1CCN(c2nc(OCC3CCCN3C)nc3c(F)c(-c4nc(N)cc(C)c4C(F)(F)F)c(Cl)cc23)C(C)C1
// result 105

* * *

Test system: 565726-208-R1-J5-PDC complex spheroids, growth inhibition
Experiment: Anticancer human tumor 565726-208-R1-J5-PDC cell line growth inhibition [RAS];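 further: spheroids exposed to compounds for seven days before readout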
Settings: curve of first compound; second compound 0.1 µM
reported.metric: pIC50
Kindly note that pIC50 refers to -log10 of the concentration in mol/L and answer with the value alone.

CCC(CC)c1cc(NC2CCC(N)C2)n2nccc2n1 (stereo not given) + C#Cc1c(F)ccc2cc(O)cc(-c3ncc4c(N5CC6CCC(C5)N6)nc(OCC56CCCN5CC(F)C6)nc4c3F)c12; 5.90

Could you now look at the following molecule, please?
// query Hello, please tell me recorded pIC50 for this one: O=C(c1ccc(F)c(F)c1Nc1ccc(I)cc1F)N1CC(O)([C@@H]2CCCCN2)C1 + C=CC(=O)N1CCN(c2nc(OCC3CCCN3C)nc3c(F)c(-c4nc(N)cc(C)c4C(F)(F)F)c(Cl)cc23)C(C)C1
// result 6.44

Reference source: PubChem BioAssay AID2060899
